Target: Adrenergic receptor alpha-1 (Rattus norvegicus) (UniProt P15823+P23944+P43140)
Assay: In vitro agonist activity against alpha-1 adrenergic receptor in rat anococcygeus
Format: functional
Each item that follows carries a reported Potency.
readout type: Potency

INSERT INTO assay_data (smiles_notation, tested_on, recorded_value) VALUES
  ('c1ccc(CN2CCOc3cc(NC4=NCCN4)ccc32)cc1', 'Adrenergic receptor alpha-1 (Rattus norvegicus) (UniProt P15823+P23944+P43140)', 0),
  ('CC(=O)N1CCOc2ccc(NC3=NCCN3)cc21.I', 'Adrenergic receptor alpha-1 (Rattus norvegicus) (UniProt P15823+P23944+P43140)', 0),
  ('CS(=O)(=O)N1CCOc2ccc(NC3=NCCN3)cc21.I', 'Adrenergic receptor alpha-1 (Rattus norvegicus) (UniProt P15823+P23944+P43140)', 0),
  ('CCN1CCc2ccc(NC3=NCCN3)cc21', 'Adrenergic receptor alpha-1 (Rattus norvegicus) (UniProt P15823+P23944+P43140)', 0.17),
  ('CC(=O)N1CCc2ccc(NC3=NCCN3)cc21', 'Adrenergic receptor alpha-1 (Rattus norvegicus) (UniProt P15823+P23944+P43140)', 0),
  ('c1cc2c(cc1NC1=NCCN1)OCO2', 'Adrenergic receptor alpha-1 (Rattus norvegicus) (UniProt P15823+P23944+P43140)', 0),
  ('CCN1CCOc2cc(NC3=NCCN3)ccc21', 'Adrenergic receptor alpha-1 (Rattus norvegicus) (UniProt P15823+P23944+P43140)', 0.055),
  ('CN1CCOc2cc(NC3=NCCN3)ccc21.I', 'Adrenergic receptor alpha-1 (Rattus norvegicus) (UniProt P15823+P23944+P43140)', 0.0002),
  ('CN1CCOc2ccc(NC3=NCCN3)cc21', 'Adrenergic receptor alpha-1 (Rattus norvegicus) (UniProt P15823+P23944+P43140)', 0.5),
  ('O=C1COc2ccc(NC3=NCCN3)cc2N1', 'Adrenergic receptor alpha-1 (Rattus norvegicus) (UniProt P15823+P23944+P43140)', 0.002);

Source of measurements: ChEMBL document CHEMBL1124536
